Tested on: Pseudomonas aeruginosa PAO1-Xen41
Assay: Emax, maximal drug effect on net growth rate (fitted lower asymptote) (per hour (slope of log luminescence)); higher = weaker maximal killing (less negative)
Conditions: medium (conditioned by secondary species or non-conditioned control): S. pneumoniae
Items are presented alongside their recorded Emax.

Example cases with answers are listed next.
CN(C)c1ccc(O)c2c1C[C@H]1C[C@H]3[C@H](N(C)C)C(O)=C(C(N)=O)C(=O)[C@@]3(O)C(O)=C1C2=O: -0.0595
CCC(C)CCCC(=O)N[C@@H](CCN)C(=O)N[C@H](C(=O)N[C@@H](CCN)C(=O)N[C@H]1CCNC(=O)[C@H]([C@@H](C)O)NC(=O)[C@H](CCN)NC(=O)[C@H](CCN)NC(=O)[C@H](CC(C)C)NC(=O)[C@@H](CC(C)C)NC(=O)[C@H](CCN)NC1=O)[C@@H](C)O (stereo partly specified): -0.117
C[C@H]1[C@H](NC(=O)/C(=N\OC(C)(C)C(=O)O)c2csc(N)n2)C(=O)N1S(=O)(=O)O: -0.138
C[C@@H]1O[C@@H]1P(=O)(O)O: -0.276
CC(C)(O/N=C(\C(=O)N[C@@H]1C(=O)N2C(C(=O)[O-])=C(C[n+]3ccccc3)CS[C@H]12)c1csc(N)n1)C(=O)O: -0.159

Read the next record carefully.
Report measured Emax on Pseudomonas aeruginosa PAO1-Xen41; entry: CO[C@H]1/C=C/O[C@@]2(C)Oc3c(C)c(O)c4c(O)c(c(/C=N/N5CCN(C)CC5)c(O)c4c3C2=O)NC(=O)/C(C)=C\C=C\[C@H](C)[C@H](O)[C@@H](C)[C@@H](O)[C@@H](C)[C@H](OC(C)=O)[C@@H]1C
-0.142

----------
Tested on: Pseudomonas aeruginosa PAO1-Xen41
Test: EC50 of growth/kill rate concentration-effect curve
Details: medium (conditioned by secondary species or non-conditioned control): S. aureus
Items are presented alongside their recorded EC50.
Give just the number in µg/mL; leave the unit off.

Report measured EC50 on Pseudomonas aeruginosa PAO1-Xen41; entry: C[C@H]1[C@H](NC(=O)/C(=N\OC(C)(C)C(=O)O)c2csc(N)n2)C(=O)N1S(=O)(=O)O [aztreonam]
4.88

Report measured EC50 on Pseudomonas aeruginosa PAO1-Xen41; entry: C[C@@H](O)[C@H]1C(=O)N2C(C(=O)O)=C(S[C@@H]3CN[C@H](C(=O)N(C)C)C3)[C@H](C)[C@H]12 [meropenem]
0.707

Report measured EC50 on Pseudomonas aeruginosa PAO1-Xen41; entry: C[C@@H]1O[C@@H]1P(=O)(O)O [fosfomycin]
47.3

Report measured EC50 on Pseudomonas aeruginosa PAO1-Xen41; entry: O=C(O)c1cn(C2CC2)c2cc(N3CCNCC3)c(F)cc2c1=O [ciprofloxacin]
0.0434

Report measured EC50 on Pseudomonas aeruginosa PAO1-Xen41; entry: CO[C@H]1/C=C/O[C@@]2(C)Oc3c(C)c(O)c4c(O)c(c(/C=N/N5CCN(C)CC5)c(O)c4c3C2=O)NC(=O)/C(C)=C\C=C\[C@H](C)[C@H](O)[C@@H](C)[C@@H](O)[C@@H](C)[C@H](OC(C)=O)[C@@H]1C [rifampicin]
43.6

Report measured EC50 on Pseudomonas aeruginosa PAO1-Xen41; entry: NC[C@H]1O[C@H](O[C@H]2[C@H](O)[C@@H](O[C@H]3O[C@H](CO)[C@@H](O)[C@H](N)[C@H]3O)[C@H](N)C[C@@H]2N)[C@H](N)C[C@@H]1O [tobramycin]
0.0695

Report measured EC50 on Pseudomonas aeruginosa PAO1-Xen41; entry: CCC(C)CCCC(=O)N[C@@H](CCN)C(=O)N[C@H](C(=O)N[C@@H](CCN)C(=O)N[C@H]1CCNC(=O)[C@H]([C@@H](C)O)NC(=O)[C@H](CCN)NC(=O)[C@H](CCN)NC(=O)[C@H](CC(C)C)NC(=O)[C@@H](CC(C)C)NC(=O)[C@H](CCN)NC1=O)[C@@H](C)O (some centres undefined) [colistin]
1.08

Report measured EC50 on Pseudomonas aeruginosa PAO1-Xen41; entry: CC(C)(O/N=C(\C(=O)N[C@@H]1C(=O)N2C(C(=O)[O-])=C(C[n+]3ccccc3)CS[C@H]12)c1csc(N)n1)C(=O)O [ceftazidime]
1.12

Report measured EC50 on Pseudomonas aeruginosa PAO1-Xen41; entry: CN(C)c1ccc(O)c2c1C[C@H]1C[C@H]3[C@H](N(C)C)C(O)=C(C(N)=O)C(=O)[C@@]3(O)C(O)=C1C2=O [minocycline]
87.8

----------
Items are presented alongside their recorded Hill coefficient.
Test system: Pseudomonas aeruginosa PAO1-Xen41
Assay: Hill coefficient of concentration-effect curve (unitless); higher = steeper concentration-effect curve
Conditions: medium (conditioned by secondary species or non-conditioned control): A. fumigatus
Response field accepts a number only; no unit should be typed.

O=C(O)c1cn(C2CC2)c2cc(N3CCNCC3)c(F)cc2c1=O: 6.73

Report measured Hill coefficient on Pseudomonas aeruginosa PAO1-Xen41; entry: C[C@@H]1O[C@@H]1P(=O)(O)O
1.48

Report measured Hill coefficient on Pseudomonas aeruginosa PAO1-Xen41; entry: CCC(C)CCCC(=O)N[C@@H](CCN)C(=O)N[C@H](C(=O)N[C@@H](CCN)C(=O)N[C@H]1CCNC(=O)[C@H]([C@@H](C)O)NC(=O)[C@H](CCN)NC(=O)[C@H](CCN)NC(=O)[C@H](CC(C)C)NC(=O)[C@@H](CC(C)C)NC(=O)[C@H](CCN)NC1=O)[C@@H](C)O (some centres undefined)
0.809

Report measured Hill coefficient on Pseudomonas aeruginosa PAO1-Xen41; entry: C[C@H]1[C@H](NC(=O)/C(=N\OC(C)(C)C(=O)O)c2csc(N)n2)C(=O)N1S(=O)(=O)O
5.79

Report measured Hill coefficient on Pseudomonas aeruginosa PAO1-Xen41; entry: NC[C@H]1O[C@H](O[C@H]2[C@H](O)[C@@H](O[C@H]3O[C@H](CO)[C@@H](O)[C@H](N)[C@H]3O)[C@H](N)C[C@@H]2N)[C@H](N)C[C@@H]1O
4.28

Report measured Hill coefficient on Pseudomonas aeruginosa PAO1-Xen41; entry: C[C@@H](O)[C@H]1C(=O)N2C(C(=O)O)=C(S[C@@H]3CN[C@H](C(=O)N(C)C)C3)[C@H](C)[C@H]12
7.42

Report measured Hill coefficient on Pseudomonas aeruginosa PAO1-Xen41; entry: CO[C@H]1/C=C/O[C@@]2(C)Oc3c(C)c(O)c4c(O)c(c(/C=N/N5CCN(C)CC5)c(O)c4c3C2=O)NC(=O)/C(C)=C\C=C\[C@H](C)[C@H](O)[C@@H](C)[C@@H](O)[C@@H](C)[C@H](OC(C)=O)[C@@H]1C
1.86

Report measured Hill coefficient on Pseudomonas aeruginosa PAO1-Xen41; entry: CC(C)(O/N=C(\C(=O)N[C@@H]1C(=O)N2C(C(=O)[O-])=C(C[n+]3ccccc3)CS[C@H]12)c1csc(N)n1)C(=O)O
3.33

Report measured Hill coefficient on Pseudomonas aeruginosa PAO1-Xen41; entry: CN(C)c1ccc(O)c2c1C[C@H]1C[C@H]3[C@H](N(C)C)C(O)=C(C(N)=O)C(=O)[C@@]3(O)C(O)=C1C2=O
5.95

----------
System: Pseudomonas aeruginosa PAO1-Xen41
Assay: Hill coefficient of concentration-effect curve (unitless); higher = steeper concentration-effect curve
Conditions: medium (conditioned by secondary species or non-conditioned control): MH broth + glucose
Observation Type: Hill coefficient
Response field accepts a number only; no unit should be typed.

Example cases with answers are listed next.
CCC(C)CCCC(=O)N[C@@H](CCN)C(=O)N[C@H](C(=O)N[C@@H](CCN)C(=O)N[C@H]1CCNC(=O)[C@H]([C@@H](C)O)NC(=O)[C@H](CCN)NC(=O)[C@H](CCN)NC(=O)[C@H](CC(C)C)NC(=O)[C@@H](CC(C)C)NC(=O)[C@H](CCN)NC1=O)[C@@H](C)O (stereo not given in full): 2.92
NC[C@H]1O[C@H](O[C@H]2[C@H](O)[C@@H](O[C@H]3O[C@H](CO)[C@@H](O)[C@H](N)[C@H]3O)[C@H](N)C[C@@H]2N)[C@H](N)C[C@@H]1O: 3.39
C[C@@H](O)[C@H]1C(=O)N2C(C(=O)O)=C(S[C@@H]3CN[C@H](C(=O)N(C)C)C3)[C@H](C)[C@H]12: 3
O=C(O)c1cn(C2CC2)c2cc(N3CCNCC3)c(F)cc2c1=O: 5.64

Read the next record carefully.
Supply Hill coefficient value. Item: CO[C@H]1/C=C/O[C@@]2(C)Oc3c(C)c(O)c4c(O)c(c(/C=N/N5CCN(C)CC5)c(O)c4c3C2=O)NC(=O)/C(C)=C\C=C\[C@H](C)[C@H](O)[C@@H](C)[C@@H](O)[C@@H](C)[C@H](OC(C)=O)[C@@H]1C
2.46
